METHOD_SUMMARY: Selectivity index, ratio of CC50 for human TZM-bl cells to IC50 for HIV1 3B
Type: functional
Please mark true if the recorded Ratio CC50/IC50 is equal to or greater than 20, and false if it falls below.

Here are 8 molecules together with their reported answers.
| MOLECULE | QUALITATIVE_LABEL |
| --- | --- |
| Cc1cc2c(c(O)c1-c1c(C)cc3c(c1O)/C(=C/NC(C)(C)C(=O)[O-])C(=O)C(O)=C3C(C)C)/C(=C/NC(C)(C)C(=O)[O-])C(=O)C(O)=C2C(C)C.[Na+].[Na+] | true |
| Cc1cc2c(c(O)c1-c1c(C)cc3c(c1O)/C(=C/N[C@H](C(=O)[O-])C(C)C)C(=O)C(O)=C3C(C)C)/C(=C/N[C@H](C(=O)[O-])C(C)C)C(=O)C(O)=C2C(C)C.[Na+].[Na+] | true |
| Cc1cc2c(c(O)c1-c1c(C)cc3c(c1O)/C(=C/N[C@@H](Cc1c[nH]c4ccccc14)C(=O)[O-])C(=O)C(O)=C3C(C)C)/C(=C/N[C@@H](Cc1c[nH]c3ccccc13)C(=O)[O-])C(=O)C(O)=C2C(C)C.[Na+].[Na+] | true |
| Cc1cc2c(c(O)c1-c1c(C)cc3c(c1O)/C(=C/NC(C(=O)[O-])c1ccc(O)cc1)C(=O)C(O)=C3C(C)C)/C(=C/NC(C(=O)[O-])c1ccc(O)cc1)C(=O)C(O)=C2C(C)C.[Na+].[Na+] (stereo not drawn) | false |
| Cc1cc2c(C(C)C)c(O)c(O)c(/C=N/[C@@H](Cc3ccccc3)C(=O)[O-])c2c(O)c1-c1c(C)cc2c(C(C)C)c(O)c(O)c(/C=N/[C@@H](Cc3ccccc3)C(=O)[O-])c2c1O.[Na+].[Na+] | true |
| Cc1cc2c(c(O)c1-c1c(C)cc3c(c1O)/C(=C/N[C@@H](CC(C)C)C(=O)[O-])C(=O)C(O)=C3C(C)C)/C(=C/N[C@@H](CC(C)C)C(=O)[O-])C(=O)C(O)=C2C(C)C.[Na+].[Na+] | true |
| Cc1cc2c(c(O)c1-c1c(C)cc3c(c1O)/C(=C/N[C@@H](Cc1c[nH]cn1)C(=O)[O-])C(=O)C(O)=C3C(C)C)/C(=C/N[C@@H](Cc1c[nH]cn1)C(=O)[O-])C(=O)C(O)=C2C(C)C.[Na+].[Na+] | true |
| Cc1cc2c(c(O)c1-c1c(C)cc3c(c1O)/C(=C/NCCCCCCCC(=O)[O-])C(=O)C(O)=C3C(C)C)/C(=C/NCCCCCCCC(=O)[O-])C(=O)C(O)=C2C(C)C.[Na+].[Na+] | false |

INPUT: Quick check: does Cc1cc2c(c(O)c1-c1c(C)cc3c(c1O)/C(=C/N[C@@H](C)C(=O)[O-])C(=O)C(O)=C3C(C)C)/C(=C/N[C@@H](C)C(=O)[O-])C(=O)C(O)=C2C(C)C.[Na+].[Na+] have Ratio CC50/IC50 greater than or equal to 20?
OUTPUT: true

INPUT: Determine whether measured Ratio CC50/IC50 meets or exceeds 20 for Cc1cc2c(c(O)c1-c1c(C)cc3c(c1O)/C(=C/N[C@@H](CO)C(=O)[O-])C(=O)C(O)=C3C(C)C)/C(=C/N[C@@H](CO)C(=O)[O-])C(=O)C(O)=C2C(C)C.[Na+].[Na+]
OUTPUT: true

INPUT: For this molecule, is measured Ratio CC50/IC50 20 or higher? Cc1cc2c(c(O)c1-c1c(C)cc3c(c1O)/C(=C/N[C@@H](Cc1ccc(O)cc1)C(=O)[O-])C(=O)C(O)=C3C(C)C)/C(=C/N[C@@H](Cc1ccc(O)cc1)C(=O)[O-])C(=O)C(O)=C2C(C)C.[Na+].[Na+]
OUTPUT: true

INPUT: Could you tell me if the measured Ratio CC50/IC50 of Cc1cc2c(c(O)c1-c1c(C)cc3c(c1O)/C(=C/NCCCCCC(=O)[O-])C(=O)C(O)=C3C(C)C)/C(=C/NCCCCCC(=O)[O-])C(=O)C(O)=C2C(C)C.[Na+].[Na+] reaches 20 or more?
OUTPUT: false

INPUT: For this molecule, is measured Ratio CC50/IC50 20 or higher? Cc1cc2c(c(O)c1-c1c(C)cc3c(c1O)/C(=C/N[C@H](C(=O)[O-])c1ccccc1)C(=O)C(O)=C3C(C)C)/C(=C/N[C@H](C(=O)[O-])c1ccccc1)C(=O)C(O)=C2C(C)C.[Na+].[Na+]
OUTPUT: true
